# studySystem: Human thrombin (Homo sapiens, UniProt P00734)
# Construct: converts prothrombin (II) to thrombin (IIa); purchased Calbiochem, La Jolla, Calif
# testMethodNotes: Thrombin assay (chromogenic substrate)
# Type: biochemical
# testParameters: reported only as less than or greater than 30 uM; read-out: Thrombin (II) IC50
# Procedure: Percent inhibition of thrombin activity is calculated from OD405 nm value from the experimental and control sample. Recombinant human VIIa was purchased from American Diagnostica, Greenwich CT and chromogenic substrate N-methylsulfonyl-D-phe-gly-arg-p-nitroaniline was prepared by American Peptide Company, Inc., Sunnyvale, Calif. Factor Xa was obtained from Enzyme Research Laboratories, South Bend Ind., thrombin from Calbiochem, La Jolla, Calif., and trypsin and L-BAPNA from Sigma, St. Louis Mo.
pIC50: −log10 of the molar value.
Reported pIC50 is given for each of the following molecules.
observationType: pIC50

[[record]]
molecule = "Cc1cc(N)cc(-c2cnc(NC(C)C)c(=O)n2CC(=O)NCc2ccc(C(=N)N)cc2)c1.Cl.Cl"
result = "< 4.52"

[[record]]
molecule = "CCC(C)Oc1cc(N)cc(-c2cnc(NC(C)C)c(=O)n2CC(=O)NCc2ccc(C(=N)N)cc2)c1.O=C(O)C(F)(F)F.O=C(O)C(F)(F)F (centres unmarked)"
result = "< 4.52"

[[record]]
molecule = "CC[C@H](C)NC(=O)c1cc(N)cc(-c2cnc(NC)c(=O)n2CC(=O)NCc2ccc(C(=N)N)cc2)c1"
result = "< 4.52"

[[record]]
molecule = "CC(C)Nc1ncc(-c2cc(N)cc(OCC3CCCCC3)c2)n(CC(=O)NCc2ccc(C(=N)N)cc2)c1=O.O=C(O)C(F)(F)F.O=C(O)C(F)(F)F"
result = "< 4.52"

[[record]]
molecule = "CC[C@H](C)NC(=O)c1cc(N)cc(-c2cnc(NC(C)C)c(=O)n2CC(=O)NCc2ccc(C(=N)N)cc2O)c1.O=C(O)C(F)(F)F"
result = "> 4.52"

[[record]]
molecule = "CC(C)Nc1ncc(-c2cc(N)cc(S(=O)(=O)C3CCCC3)c2)n(CC(=O)NCc2ccc(C(=N)N)cc2)c1=O.O=C(O)C(F)(F)F.O=C(O)C(F)(F)F"
result = "< 4.52"

[[record]]
molecule = "COC(=O)[C@H](NC(=O)c1cc(N)cc(-c2cnc(NC(C)C)c(=O)n2CC(=O)NCc2ccc(C(=N)N)cc2)c1)c1ccccc1"
result = "> 4.52"

[[record]]
molecule = "CC(C)CCC(=O)Nc1cc(N)cc(-c2cnc(NC(C)C)c(=O)n2CC(=O)NCc2ccc(C(=N)N)cc2)c1.O=C(O)C(F)(F)F.O=C(O)C(F)(F)F"
result = "> 4.52"

[[record]]
molecule = "CCC(CC)COc1cc(N)cc(-c2cnc(NC(C)C)c(=O)n2CC(=O)NCc2ccc(C(=N)N)cc2)c1.O=C(O)C(F)(F)F.O=C(O)C(F)(F)F"
result = "< 4.52"

[[record]]
molecule = "CC(C)Nc1ncc(-c2cc(N)cc(C(=O)N[C@@H](C)C3CCCCC3)c2)n(CC(=O)NCc2ccc(C(=N)N)cc2)c1=O.O=C(O)C(F)(F)F"
result = "> 4.52"

[[record]]
molecule = "CCCCC(CC)C(=O)Nc1cc(N)cc(-c2cnc(NC(C)C)c(=O)n2CC(=O)NCc2ccc(C(=N)N)cc2)c1.O=C(O)C(F)(F)F.O=C(O)C(F)(F)F (centres unmarked)"
result = "> 4.52"

[[record]]
molecule = "CC(C)Nc1ncc(-c2cc(N)cc(C(=O)NCc3ccc(O)cc3)c2)n(CC(=O)NCc2ccc(C(=N)N)cc2)c1=O.O=C(O)C(F)(F)F"
result = "< 4.52"

[[record]]
molecule = "CC(C)Nc1ncc(-c2cc(N)cc(C(=O)OC(C)C)c2)n(CC(=O)NCc2ccc(C(=N)N)cc2)c1=O.O=C(O)C(F)(F)F"
result = "< 4.52"

[[record]]
molecule = "COc1ccc(S(=O)(=O)Nc2cc(N)cc(-c3cnc(NC(C)C)c(=O)n3CC(=O)NCc3ccc(C(=N)N)cc3)c2)cc1"
result = "< 4.52"

[[record]]
molecule = "N=C(N)c1ccc(CNC(=O)Cn2c(-c3cc(N)cc(O)c3)cnc(NC3CC3)c2=O)cc1.O=C(O)C(F)(F)F.O=C(O)C(F)(F)F"
result = "< 4.52"

[[record]]
molecule = "CC(C)Nc1ncc(-c2cc(N)cc(S(=O)(=O)CC(C)(C)C)c2)n(CC(=O)NCc2ccc(C(=N)N)cc2)c1=O.O=C(O)C(F)(F)F.O=C(O)C(F)(F)F"
result = "< 4.52"

[[record]]
molecule = "CC(C)Nc1ncc(-c2cc(N)cc(OCC(C)(C)N(C)C)c2)n(CC(=O)NCc2ccc(C(=N)N)cc2)c1=O.O=C(O)C(F)(F)F.O=C(O)C(F)(F)F"
result = "< 4.52"

[[record]]
molecule = "CC(C)Nc1ncc(-c2cc(N)cc(C(=O)NCc3ccccc3)c2)n(CC(=O)NCc2ccc(C(=N)N)cc2)c1=O.O=C(O)C(F)(F)F.O=C(O)C(F)(F)F"
result = "< 4.52"

[[record]]
molecule = "COC(=O)[C@@H](NC(=O)c1cc(N)cc(-c2cnc(NC(C)C)c(=O)n2CC(=O)NCc2ccc(C(=N)N)cc2)c1)c1ccccc1"
result = "> 4.52"

[[record]]
molecule = "CC(C)Nc1ncc(-c2cc(N)cc(C(F)(F)F)c2)n(CC(=O)NCc2ccc(C(=N)N)c(F)c2F)c1=O"
result = "< 4.52"

[[record]]
molecule = "CC(C)Nc1ncc(-c2cc(N)cc(C(=O)N[C@H](C)c3ccccc3)c2)n(CC(=O)NCc2ccc(C(=N)N)cc2)c1=O"
result = "> 4.52"

[[record]]
molecule = "CC[C@@H](C)NC(=O)c1cc(N)cc(-c2cnc(NC(C)C)c(=O)n2CC(=O)NCc2ccc(C(=N)N)cc2OC)c1.O=C(O)C(F)(F)F.O=C(O)C(F)(F)F"
result = "> 4.52"

[[record]]
molecule = "CC(C)Nc1ncc(-c2cc(N)cc(C(=O)NCc3cccc(C(F)(F)F)c3)c2)n(CC(=O)NCc2ccc(C(=N)N)cc2)c1=O.O=C(O)C(F)(F)F.O=C(O)C(F)(F)F"
result = "< 4.52"


###

Reported IC50 is given for each of the following compounds.
# studySystem: Human thrombin (Homo sapiens)
# Construct: converts prothrombin (II) to thrombin (IIa); purchased Calbiochem, La Jolla, Calif
# testMethodNotes: Thrombin assay (chromogenic substrate)
# Type: biochemical
# testParameters: reported only as less than or greater than 30 uM; read-out: Thrombin (II) IC50
observationType: IC50

[[record]]
chemicalstructure = "CC[C@@H](C)NC(=O)c1cc(N)cc(-c2cnc(NC(C)C)c(=O)n2CC(=O)NCc2c(O)cc(C(=N)N)cc2OCc2cccnc2)c1"
observationtype = "IC50"
result = "> 30 µM"

[[record]]
chemicalstructure = "CC(C)Nc1ncc(-c2cc(N)cc(C(F)(F)F)c2)n(CC(=O)NCc2ccc(C(=N)N)c(O)c2F)c1=O"
observationtype = "IC50"
result = "> 30 µM"

[[record]]
chemicalstructure = "CC(C)Nc1ncc(-c2cc(N)cc(-c3nnn[nH]3)c2)n(CC(=O)NCc2ccc(C(=N)N)cc2)c1=O.O=C(O)C(F)(F)F"
observationtype = "IC50"
result = "> 30 µM"


###

pIC50: −log10 of the molar value.
A set of compounds tested on Human factor Xa (Homo sapiens), with measured pIC50:
observationType: pIC50

[[record]]
compound = "CNc1ncc(-c2cc(N)cc(C(=O)O)c2)n(CC(=O)NCc2ccc(C(=N)N)cc2)c1=O [Example 37]"
observationtype = "pIC50"
result = "< 4.52"

[[record]]
compound = "CC(C)Nc1ncc(-c2cc(N)cc(OCCC(C)(C)C)c2)n(CC(=O)NCc2ccc(C(=N)N)cc2)c1=O.O=C(O)C(F)(F)F.O=C(O)C(F)(F)F [Example 215]"
observationtype = "pIC50"
result = "< 4.52"

[[record]]
compound = "COc1cc(N)cc(-c2cnc(NC(C)C)c(=O)n2CC(=O)NCc2cc(O)c(C(=N)N)c(F)c2)c1 [Example 168]"
observationtype = "pIC50"
result = "< 4.52"

[[record]]
compound = "CC(C)CCNC(=O)c1cc(N)cc(-c2cnc(NC(C)C)c(=O)n2CC(=O)NCc2ccc(C(=N)N)cc2)c1.O=C(O)C(F)(F)F.O=C(O)C(F)(F)F [Example 6]"
observationtype = "pIC50"
result = "< 4.52"

[[record]]
compound = "CC(C)Nc1ncc(-c2cc(N)cc(C(F)(F)F)c2)n(CC(=O)NCc2cc(O)c(C(=N)N)c(F)c2)c1=O.O=C(O)C(F)(F)F [Example 116]"
observationtype = "pIC50"
result = "> 4.52"

[[record]]
compound = "CCCNc1ncc(-c2cc(N)cc(C(=O)N[C@@H](C)CC)c2)n(CC(=O)NCc2ccc(C(=N)N)cc2)c1=O.O=C(O)C(F)(F)F.O=C(O)C(F)(F)F [Example 192]"
observationtype = "pIC50"
result = "< 4.52"

